- measuredOn: UniProtKB Q9NR96
- Sequence (Q9NR96 26-1032): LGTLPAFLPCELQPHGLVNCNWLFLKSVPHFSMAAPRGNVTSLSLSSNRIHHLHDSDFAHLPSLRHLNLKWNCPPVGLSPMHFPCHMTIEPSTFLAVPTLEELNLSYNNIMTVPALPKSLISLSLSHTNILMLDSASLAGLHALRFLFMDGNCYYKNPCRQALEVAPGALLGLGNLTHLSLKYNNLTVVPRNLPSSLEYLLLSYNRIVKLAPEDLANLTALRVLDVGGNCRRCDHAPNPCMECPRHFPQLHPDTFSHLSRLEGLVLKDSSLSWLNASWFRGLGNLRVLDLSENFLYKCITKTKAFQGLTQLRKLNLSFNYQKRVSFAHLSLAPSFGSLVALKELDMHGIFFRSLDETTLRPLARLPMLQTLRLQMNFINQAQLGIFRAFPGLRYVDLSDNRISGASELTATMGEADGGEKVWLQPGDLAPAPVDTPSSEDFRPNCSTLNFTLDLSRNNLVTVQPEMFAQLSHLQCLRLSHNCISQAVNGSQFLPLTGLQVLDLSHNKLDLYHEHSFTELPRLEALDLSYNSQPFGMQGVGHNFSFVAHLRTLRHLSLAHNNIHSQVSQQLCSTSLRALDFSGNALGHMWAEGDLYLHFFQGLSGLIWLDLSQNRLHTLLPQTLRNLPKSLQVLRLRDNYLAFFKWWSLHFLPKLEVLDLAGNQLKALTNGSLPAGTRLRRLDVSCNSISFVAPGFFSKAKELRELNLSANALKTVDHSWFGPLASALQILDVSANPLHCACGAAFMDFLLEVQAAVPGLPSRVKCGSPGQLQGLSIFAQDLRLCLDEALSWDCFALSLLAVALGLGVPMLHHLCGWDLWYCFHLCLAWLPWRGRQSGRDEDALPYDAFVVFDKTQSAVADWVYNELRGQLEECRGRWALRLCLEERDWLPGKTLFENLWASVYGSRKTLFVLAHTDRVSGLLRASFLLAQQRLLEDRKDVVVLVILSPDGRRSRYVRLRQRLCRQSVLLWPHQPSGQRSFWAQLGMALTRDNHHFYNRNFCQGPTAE
- procedureText: Subsequent human PBMC assay, DNA-mediated activation of TLR9, IL-6 and IFN-α
- Type: cell-based
- experimentalContext: human PBMC; ligand ODN2006-DOTAP; average of donors; read-out: IC50 IFN-α Ave.
pIC50: −log10 of the molar value.

molecule | pIC50
CCN(CCO)CCCC(C)Nc1ccnc2cc(Cl)ccc12 (stereo not shown) [HCQ, hydroxychloroquine, reference compound] | 5.52

These entries and their values trace back to patent USRE47193E1.
